COND: in n-propanol, 268.15 K
OBSERVATION_TYPE: solubility (mole fraction)
Answer field: number only, no words.

N#Cc1cccnc1	0.0434

Next compound, please.
Query :: Suppose we examine the compound `N#Cc1ccncc1` ; what solubility (mole fraction) value has been reported?
Result :: 0.0246

----------
COND: in isobutanol, 278.15 K
OBSERVATION_TYPE: solubility (mole fraction)
Lab note: record just the number, no unit beside it.

N#Cc1cccnc1	0.0702

Query :: Return reported solubility (mole fraction); argument: `N#Cc1ccncc1`
Result :: 0.0229

----------
COND: in methanol, 273.15 K
Measured solubility (mole fraction) of individual entries
Number only, please.

N#Cc1ccncc1	0.0302

Query :: Which solubility (mole fraction) is listed for `N#Cc1cccnc1` ?
Result :: 0.111

----------
Parameter solubility (mole fraction): see the listing below.
COND: in tetrachloromethane, 288.15 K
Format: numeric value only, no unit, no commentary.

N#Cc1cccnc1	0.095

For the next question, use this compound.
Query :: If you can, please state the reported solubility (mole fraction) value of `N#Cc1ccncc1` .
Result :: 0.0396

----------
COND: in ethanol, 273.15 K
Recorded solubility (mole fraction), one value per entry.
Number, no unit, nothing else.

N#Cc1cccnc1	0.0593

Attention now shifts to the item below.
Query :: # lookup: solubility (mole fraction) of `N#Cc1ccncc1`
Result :: 0.016

----------
Measured solubility (mole fraction), listed per entry.
COND: in isobutanol, 288.15 K
Lab note: record the figure alone, no unit after it.

N#Cc1ccncc1	0.0469

Turning to the following compound.
Query :: Suppose we examine the compound `N#Cc1cccnc1` ; what solubility (mole fraction) value has been reported?
Result :: 0.17

----------
COND: in methanol, 308.15 K
OBSERVATION_TYPE: solubility (mole fraction)
Output: the number by itself.

N#Cc1cccnc1	0.541

Please turn your attention to the following entry.
Query :: # solubility (mole fraction) lookup, item `N#Cc1ccncc1`
Result :: 0.173

----------
This section presents molecules with their documented solubility (mole fraction) values.
COND: in ethanol, 308.15 K
Write the number on its own, no unit after it.

N#Cc1cccnc1	0.491

The record that follows has no solubility (mole fraction) shown yet.
Query :: Sample `N#Cc1ccncc1` — what was its solubility (mole fraction)?
Result :: 0.136

----------
COND: in ethyl acetate, 273.15 K
OBSERVATION_TYPE: solubility (mole fraction)

N#Cc1ccncc1	0.121

Please examine the following record next.
Query :: Fill blank: measured solubility (mole fraction) of the compound `N#Cc1cccnc1` is ____.
Result :: 0.247

----------
# reported solubility (mole fraction); entries follow
COND: in methanol, 268.15 K

N#Cc1cccnc1	0.0877

Now for a further compound.
Query :: Form field: reported solubility (mole fraction) of `N#Cc1ccncc1`
Result :: 0.0245

----------
Catalogue of solubility (mole fraction) values
COND: in acetone, 273.15 K
Just the number, please.

N#Cc1ccncc1	0.134

Next molecule, please.
Query :: Need solubility (mole fraction) of `N#Cc1cccnc1` , thanks.
Result :: 0.29

----------
COND: in n-butanol, 298.15 K
Parameter: solubility (mole fraction). Scope: all listed entries.
Answer as a number with no unit attached.

N#Cc1ccncc1	0.0898

Consider now this further molecule.
Query :: Item under review: `N#Cc1cccnc1` . Reported solubility (mole fraction)?
Result :: 0.275

----------
Parameter: solubility (mole fraction). Scope: all listed entries.
COND: in ethanol, 288.15 K

N#Cc1cccnc1	0.201

# next molecule below
Query :: Please give the measured solubility (mole fraction) for this molecule: `N#Cc1ccncc1`
Result :: 0.0367

----------
COND: in acetone, 278.15 K
OBSERVATION_TYPE: solubility (mole fraction)
Form rule: numeric answer, no unit written next to it.

N#Cc1cccnc1	0.329

Query :: If you can, please state the reported solubility (mole fraction) value of `N#Cc1ccncc1` .
Result :: 0.155

----------
Below is a list of entries, each paired with its recorded solubility (mole fraction) value.
COND: in ethanol, 278.15 K
The reply should be a number, written without any unit.

N#Cc1cccnc1	0.0903

Pending compound:
Query :: Looking for the measured solubility (mole fraction) of `N#Cc1ccncc1` , can you help?
Result :: 0.0179

----------
Recorded solubility (mole fraction), one value per entry.
COND: in tetrachloromethane, 298.15 K
Output spec: single numeric token, no unit.

N#Cc1cccnc1	0.239

Here's the next entry for you.
Query :: solubility (mole fraction) for `N#Cc1ccncc1` ?
Result :: 0.0839

----------
COND: in ethyl acetate, 318.15 K
solubility (mole fraction) overview
API doc: respond with a numeric literal and nothing else, no unit.

N#Cc1cccnc1	0.803

# next compound below
Query :: solubility (mole fraction) for `N#Cc1ccncc1` ?
Result :: 0.437

----------
COND: in tetrachloromethane, 268.15 K
OBSERVATION_TYPE: solubility (mole fraction)

Query :: Requested read-out: solubility (mole fraction). Entry: `N#Cc1cccnc1`
Result :: 0.0098

Query :: Consider the compound `N#Cc1ccncc1` and give its measured solubility (mole fraction).
Result :: 0.0129

----------
COND: in tetrachloromethane, 278.15 K
# solubility (mole fraction) values compiled below
Enter the number alone.

N#Cc1ccncc1	0.0292

Now, please, on to the next compound.
Query :: Need solubility (mole fraction), item `N#Cc1cccnc1`
Result :: 0.024

----------
COND: in ethanol, 268.15 K
Entries annotated with measured solubility (mole fraction)
Please reply with the number alone, leaving off any unit.

N#Cc1ccncc1	0.0065

Query :: Look up solubility (mole fraction): `N#Cc1cccnc1`
Result :: 0.0429

----------
COND: in ethyl acetate, 298.15 K
OBSERVATION_TYPE: solubility (mole fraction)
// return a plain number; no unit text

N#Cc1cccnc1	0.478

Query :: Entry `N#Cc1ccncc1` : reported solubility (mole fraction) = ?
Result :: 0.261

----------
COND: in methanol, 318.15 K
# solubility (mole fraction) values compiled below
Give the value as a plain number.

N#Cc1ccncc1	0.304

Field: next molecule
Query :: For the molecule `N#Cc1cccnc1` , what solubility (mole fraction) is on record?
Result :: 0.726

----------
COND: in ethyl acetate, 288.15 K
Reported solubility (mole fraction) values are given for each entry in this list.
The response must contain the number and no unit.

N#Cc1cccnc1	0.375

Query :: Consider the compound `N#Cc1ccncc1` and give its measured solubility (mole fraction).
Result :: 0.203

----------
COND: in ethanol, 318.15 K
OBSERVATION_TYPE: solubility (mole fraction)
Answer as a number with no unit attached.

N#Cc1ccncc1	0.273

Query :: Would you kindly share the measured solubility (mole fraction) for `N#Cc1cccnc1` ?
Result :: 0.627

----------
COND: in tetrachloromethane, 318.15 K
Catalogue of solubility (mole fraction) readings, one per entry.
Reply briefly: the number, and no unit.

N#Cc1cccnc1	0.568

Could you now look at the following molecule, please?
Query :: Can you look up the measured solubility (mole fraction) of `N#Cc1ccncc1` for me?
Result :: 0.287

----------
COND: in n-propanol, 288.15 K
OBSERVATION_TYPE: solubility (mole fraction)
Keep the answer to the number alone.

N#Cc1cccnc1	0.214

# context switch: different compound, same solubility (mole fraction)
Query :: solubility (mole fraction) for `N#Cc1ccncc1` ?
Result :: 0.07

----------
Recorded measurements of solubility (mole fraction), one per entry
COND: in isobutanol, 268.15 K
I only need the number, thanks.

N#Cc1cccnc1	0.028

Query :: Recorded solubility (mole fraction) of `N#Cc1ccncc1` , please.
Result :: 0.0133

----------
COND: in ethyl acetate, 268.15 K
Item-by-item account of solubility (mole fraction)
Give your answer as a number; write no unit.

N#Cc1ccncc1	0.106

Please look at the following molecule next.
Query :: # input molecule: `N#Cc1cccnc1` ; wanted: its solubility (mole fraction)
Result :: 0.209
